# credit: ChEMBL document CHEMBL1135915

- STUDY SYSTEM: Alpha-1A adrenergic receptor (Rattus norvegicus)
- Sequence (P43140 whole entry): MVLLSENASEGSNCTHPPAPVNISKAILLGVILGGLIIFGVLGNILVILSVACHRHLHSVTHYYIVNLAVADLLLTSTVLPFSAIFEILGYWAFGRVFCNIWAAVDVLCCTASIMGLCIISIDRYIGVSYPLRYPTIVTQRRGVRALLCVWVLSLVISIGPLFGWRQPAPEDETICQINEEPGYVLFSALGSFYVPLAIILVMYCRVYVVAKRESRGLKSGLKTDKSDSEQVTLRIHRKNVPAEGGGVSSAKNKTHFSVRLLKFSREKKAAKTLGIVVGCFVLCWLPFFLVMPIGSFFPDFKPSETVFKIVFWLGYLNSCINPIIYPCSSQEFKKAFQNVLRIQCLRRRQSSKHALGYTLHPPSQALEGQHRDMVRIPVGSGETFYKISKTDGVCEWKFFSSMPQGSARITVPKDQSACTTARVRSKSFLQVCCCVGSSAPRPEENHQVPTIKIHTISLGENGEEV
- EXPERIMENT DESCRIPTION: Antagonistic affinity tested against isolated Rat Prostate Alpha-1A adrenergic receptor
- Type: functional
- CONDITION: read-out: pA2 (converted)
MEASURED METRIC: Kb (nM)

• COc1cccc(OC)c1OCCNC[C@H]1C[C@H](c2ccccc2)c2ccccc2S1 = 107
• COc1cccc(OC)c1OCCNC[C@@H]1C[C@H](c2ccccc2)c2ccccc2O1 = 1.12
• COc1cccc(OC)c1OCCNC[C@@H]1Oc2ccccc2O[C@H]1c1ccccc1 = 5.89
• COc1cccc(OC)c1OCCNCC1CC(c2ccccc2)c2ccccc2C1=O (stereo not drawn) = 0.347
• COc1cccc(OC)c1OCCNCC1CC(c2ccccc2)c2ccccc2S1 (stereo not drawn) = 4.9
• COc1cccc(OC)c1OCCNCCOc1ccccc1Cc1ccccc1 = 33.9
• COc1cccc(OC)c1OCCNCC1COc2ccccc2O1 (stereo not drawn) = 0.537
• COc1cccc(OC)c1OCCNCC1Cc2ccccc2C(c2ccccc2)C1 (stereo not drawn) = 288

----------
- STUDY SYSTEM: Alpha-1A adrenergic receptor (Rattus norvegicus, UniProt P43140)
- EXPERIMENT DESCRIPTION: Antagonistic affinity tested against isolated Rat Prostatic Vas Deferens Alpha-1A adrenergic receptor
- Format: functional, tissue-based
- CONDITION: read-out: pA2 (converted)
MEASURED METRIC: log10 of Kb (log10 of the value in nM)

- COc1cccc(OC)c1OCCNCC1Cc2ccccc2C(c2ccccc2)C1 (stereo not drawn): 2.25
- COc1cccc(OC)c1OCCNCC1CC(c2ccccc2)c2ccccc2S1 (stereo not drawn): 0.79
- COc1cccc(OC)c1OCCNC[C@@H]1C[C@H](c2ccccc2)c2ccccc2O1: 0.12
- COc1cccc(OC)c1OCCNCC1COc2ccccc2O1 (stereo not drawn): -0.51
- COc1cccc(OC)c1OCCNCCOc1ccccc1Cc1ccccc1: 1.77
- COc1cccc(OC)c1OCCNC[C@@H]1Oc2ccccc2O[C@H]1c1ccccc1: 0.76
- COc1cccc(OC)c1OCCNC[C@H]1C[C@H](c2ccccc2)c2ccccc2S1: 2.32
- COc1cccc(OC)c1OCCNCC1CC(c2ccccc2)c2ccccc2C1=O (stereo not drawn): -0.35

----------
- STUDY SYSTEM: Alpha-1B adrenergic receptor (Rattus norvegicus)
- Sequence (P15823 whole entry): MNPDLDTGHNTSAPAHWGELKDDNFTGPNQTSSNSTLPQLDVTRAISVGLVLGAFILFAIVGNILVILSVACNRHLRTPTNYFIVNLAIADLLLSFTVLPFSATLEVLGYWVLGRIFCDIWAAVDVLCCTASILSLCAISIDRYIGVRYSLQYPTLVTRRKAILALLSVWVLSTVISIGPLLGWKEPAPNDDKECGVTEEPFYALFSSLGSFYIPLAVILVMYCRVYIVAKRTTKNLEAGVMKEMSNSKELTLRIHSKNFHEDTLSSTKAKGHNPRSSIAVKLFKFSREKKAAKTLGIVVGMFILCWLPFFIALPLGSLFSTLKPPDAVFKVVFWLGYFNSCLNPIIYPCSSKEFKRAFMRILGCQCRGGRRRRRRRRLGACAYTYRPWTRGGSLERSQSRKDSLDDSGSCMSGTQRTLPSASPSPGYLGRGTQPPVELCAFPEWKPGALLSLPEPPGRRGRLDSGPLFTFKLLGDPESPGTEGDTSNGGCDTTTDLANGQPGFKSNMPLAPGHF
- EXPERIMENT DESCRIPTION: Antagonistic affinity tested against isolated Rat Spleen Alpha-1B adrenergic receptor
- Type: functional
- CONDITION: read-out: pA2 (converted)
Each record is given Criterion met if its reported Kb is strictly below 0.03 µM. Records at or above 0.03 µM are given Criterion not met.

- COc1cccc(OC)c1OCCNCC1Cc2ccccc2C(c2ccccc2)C1 (stereo not drawn): Criterion not met
- COc1cccc(OC)c1OCCNC[C@H]1C[C@H](c2ccccc2)c2ccccc2S1: Criterion not met
- COc1cccc(OC)c1OCCNCC1CC(c2ccccc2)c2ccccc2S1 (stereo not drawn): Criterion not met
- COc1cccc(OC)c1OCCNC[C@@H]1Oc2ccccc2O[C@H]1c1ccccc1: Criterion not met
- COc1cccc(OC)c1OCCNCC1CC(c2ccccc2)c2ccccc2C1=O (stereo not drawn): Criterion met
- COc1cccc(OC)c1OCCNC[C@@H]1C[C@H](c2ccccc2)c2ccccc2O1: Criterion met
- COc1cccc(OC)c1OCCNCCOc1ccccc1Cc1ccccc1: Criterion not met
- COc1ccccc1N1CCN(CCN2C(=O)CC3(CCCC3)CC2=O)CC1 [BMY-7378]: Criterion not met
